# targetOfAssay: human GLP-1 receptor (human, UniProt P43220)
# assaySummary: cell-based or functional assay
Where no end group is shown, it is not given here.
recordedMetric: CRE luciferase EC50, 0% HSA (nM)
The figure you give is taken to be in nM; do not add the unit.

Examples with answers:
HAEGTFTSDVSSYLEGQAAKEFIAWLVEKVKEFLDK [[Glu34,Lys35,Val36,Lys37]-GLP-1-(7-37)-peptidyl-Glu-Phe-Leu-Asp-Lys] : 0.045
HGEGTFTSDVSSYLEEEAVKEFIAWLVEKVKEF-NH2 [[Gly8,Glu22,Glu23,Val25,Glu34,Lys35,Val36,Lys37]-GLP-1-(7-37)-peptidyl-Glu-Phe amide] : 0.104
HAEGTFTSDVSSYLEGQAAKEFIAWLVEKVHEFL-NH2 [[Glu34,Lys35,Val36,His37]-GLP-1-(7-37)-peptidyl-Glu-Phe-Leu amide] : 0.107
HAEGTFTSDVSSYLEGQAAKEFIAWLVEKVKEFLE-NH2 [[Glu34,Lys35,Val36,Lys37]-GLP-1-(7-37)-peptidyl-Glu-Phe-Leu-Glu amide] : 0.114
HAEGTFTSDVSSYLEGQAAKEFIAWLVEKVKEFY-NH2 [[Glu34,Lys35,Val36,Lys37]-GLP-1-(7-37)-peptidyl-Glu-Phe-Tyr amide] : 0.037

# input for lookup
Answer with reported CRE luciferase EC50, 0% HSA of HXEGTFTSDVSSYLEGQAAKEFIAWLVKKXGEFL (Aib at 8, 36; C-terminal amide) [[Aib8,Lys35,Aib36]-GLP-1-(7-37)-peptidyl-Glu-Phe-Leu amide]
0.045

The origin of these recorded values is patent US20150344540A1.
